# Test system: 422866-222-R5-J1-PDC complex spheroids viability;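 note: spheroids exposed to compounds for 7 days; 100% = DMSO vehicle control viability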
# Assay protocol: Anticancer human tumor 422866-222-R5-J1-PDC patient-derived pancreatic adenocarcinoma cell line growth inhibition [RAS]
# Test parameters: second compound 0.00316 µM; first compound 0.316 µM; stronger effect = lower value
Measurement type: viability, T/C (%)

C=CC(=O)Nc1cc(Nc2nccc(-c3cn(C)c4ccccc34)n2)c(OC)cc1N(C)CCN(C)C + C=CC(=O)N1CCN(c2nc(OCC3CCCN3C)nc3c(F)c(-c4nc(N)cc(C)c4C(F)(F)F)c(Cl)cc23)C(C)C1: 18.5
Cc1nc(N2CCC3(CC2)COC(C)C3N)c(CO)nc1Sc1ccnc(N)c1Cl (stereo not drawn) + C=CC(=O)N1CCN(c2nc(OCC3CCCN3C)nc3c(F)c(-c4nc(N)cc(C)c4C(F)(F)F)c(Cl)cc23)C(C)C1: 17.4
CC1(O)CCCC1n1c(=O)c(C(F)F)cc2cnc(NC3CCN(S(C)(=O)=O)CC3)nc21 (stereo not drawn) + C=CC(=O)N1CCN(c2nc(OCC3CCCN3C)nc3c(F)c(-c4nc(N)cc(C)c4C(F)(F)F)c(Cl)cc23)C(C)C1: 26
